Attribution: ChEMBL document CHEMBL3392967

# TEST DETAILS: Half life in mouse plasma at 25 mg/kg single dose
# Assay type: ADME, organism-based
# Set-up: dose 25 mg/kg
RECORDED METRIC: half-life
Number first, unit second.

Prompt: May I ask what half-life has been recorded for CN(C)C1CCN(C(=O)c2ccc(NC(=O)Nc3ccc(-c4nc(N5CCOCC5)nc(N5CCOCC5)n4)cc3)cc2)CC1 [GEDATOLISIB] ?
Response: 3.5 h

----------
# TEST DETAILS: Oral bioavailability in mouse
# Format: ADME, organism-based
# COND: in vivo
RECORDED METRIC: bioavailability (%)
Give your result in % as a bare value.

Prompt: Please report the recorded bioavailability for CCn1nnc2c(N3CCOCC3)nc(-c3ccc(NC(=O)Nc4ccc(C(=O)N5CCN(C)CC5)cc4)cc3)nc21 .
Response: 88.6
